- method description: Cell viability assay (WST-8), U2OS
- Format: cell-based, human
- condition details: human, U2OS cells, conc 100, 72 h, replicates; read-out: cell viability relative to control
test readout: viability at 72 h (%)
Value expressed in %; do not type the unit.

Recorded result, NS(=O)(=O)OC[C@@H]1C[C@@H](n2ccc3c(N[C@H]4CCc5ccccc54)ncnc32)C[C@@H]1O , viability at 72 h: 50.8

====

- assayed target: DCN1 (Homo sapiens, UniProt Q96GG9)
- Sequence (Q96GG9 58-259 limits assumed): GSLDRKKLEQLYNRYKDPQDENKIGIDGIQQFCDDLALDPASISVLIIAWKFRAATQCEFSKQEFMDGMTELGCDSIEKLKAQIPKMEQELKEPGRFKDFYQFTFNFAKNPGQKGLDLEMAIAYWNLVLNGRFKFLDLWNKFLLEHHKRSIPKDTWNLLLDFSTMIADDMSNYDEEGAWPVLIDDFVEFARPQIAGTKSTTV
- method description: Intact-protein mass spectrometric analysis of covalent complex formation, Method A
- Assay type: binding
- condition details: 60 min (1 h) incubation, 37 °C
# key: entry, value: Percentage of the formation of covalent complex with DCN1 protein
Report only the number, with the unit % understood.

- molecule: "C=C(CN1CCOCC1)C(=O)NC[C@@H](NC(=O)[C@H](Cc1nc2ccc(C(C)C)cc2s1)NC(=O)CC)C1CCCCC1 [DI-1548]"
  result value: 100
- molecule: "C=C(CCN1CCOCC1)C(=O)NC[C@@H](NC(=O)[C@H](Cc1nc2ccc(C(C)C)cc2s1)NC(=O)CC)C1CCCCC1 [compound 8]"
  result value: 15
- molecule: "C=C(Cn1ccnc1)C(=O)NC[C@@H](NC(=O)[C@H](Cc1nc2ccc(C(C)C)cc2s1)NC(=O)CC)C1CCCCC1 [compound 10]"
  result value: 100

From here, focus on the item given below.
For record C=C(CN(C)C)C(=O)NC[C@@H](NC(=O)[C@H](Cc1nc2ccc(C(C)C)cc2s1)NC(=O)CC)C1CCCCC1 [DI-1859] the listed Percentage of the formation of covalent complex with DCN1 protein is 100

====

- method description: Pharmacokinetics: concentrations in mouse plasma and liver
- Assay type: in vivo
- condition details: male, C57BL/6, mouse, liver, ip, 25 mg/kg, mouse liver, IP 25mg/kg, 1h, single animals; read-out: Concentration in mouse liver, individual mice 1, 2, 3
test readout: concentration at 1 h
Please append the unit to your numeric answer.

The molecule listed as C=C(CN(C)C)C(=O)NC[C@@H](NC(=O)[C@H](Cc1nc2ccc(C(C)C)cc2s1)NC(=O)CC)C1CCCCC1 shows concentration at 1 h equal to 3880 ng/g

====

- method description: Pharmacokinetics: concentrations in mouse plasma and liver
- Assay type: in vivo
- condition details: male, C57BL/6, mouse, plasma, ip, 25 mg/kg, mouse plasma, IP 25mg/kg, 6h, single animals; limit of quantification 1 ng/mL; read-out: Concentration in mouse plasma, individual mice 1, 2, 3
test readout: concentration at 6 h

Looking up C=C(CN(C)C)C(=O)NC[C@@H](NC(=O)[C@H](Cc1nc2ccc(C(C)C)cc2s1)NC(=O)CC)C1CCCCC1 , I see its concentration at 6 h listed as < 1 ng/mL

The compound identified as C=C(CN1CCOCC1)C(=O)NC[C@@H](NC(=O)[C@H](Cc1nc2ccc(C(C)C)cc2s1)NC(=O)CC)C1CCCCC1 registered its concentration at 6 h at 1.12 ng/mL

====

- method description: Pharmacokinetics: concentrations in mouse plasma and liver
- Format: in vivo
- condition details: male, C57BL/6, mouse, plasma, ip, 25 mg/kg, mouse plasma, IP 25mg/kg, 3h, mean of 3 mice; read-out: Concentration in mouse plasma, MEAN
Below, each entry is listed with its recorded concentration at 3 h.
Report as a plain number; the unit ng/mL is understood.

- sample smiles: "C=C(CN(C)C)C(=O)NC[C@@H](NC(=O)[C@H](Cc1nc2ccc(C(C)C)cc2s1)NC(=O)CC)C1CCCCC1"
  result value: 27.9

C=C(CN1CCOCC1)C(=O)NC[C@@H](NC(=O)[C@H](Cc1nc2ccc(C(C)C)cc2s1)NC(=O)CC)C1CCCCC1 yielded concentration at 3 h of 4.47

src = paper PMC8113459
